Ref: the RNAGym collection of RNA variant scans (doi:10.7554/elife.80360)

Reported self-cleavage values follow for various variants
B1: HDV Ribozyme (parent)
chain: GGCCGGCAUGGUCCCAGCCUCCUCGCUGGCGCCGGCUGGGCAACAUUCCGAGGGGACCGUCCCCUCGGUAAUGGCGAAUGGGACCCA

variants of: B1; experiment: self-cleavage, relative activity (ratio to wild type); higher = more cleavage; co-transcriptional
Note: the reply should be a number with no unit written.

Solved cases (10 shown):
- mutation-key: "G5U G54A"
  self-cleavage: 0.314
- mutation-key: "U79A A83C"
  self-cleavage: 0.151
- mutation-key: "G6C C19G"
  self-cleavage: 0.192
- mutation-key: "A77U"
  self-cleavage: 0.623
- mutation-key: "U20G C22G"
  self-cleavage: 0.266
- mutation-key: "U72A A78C"
  self-cleavage: 0.125
- mutation-key: "C41A C62G"
  self-cleavage: 0.324
- mutation-key: "G68A A71C"
  self-cleavage: 0.58
- mutation-key: "G2C C22U"
  self-cleavage: 0.0567
- mutation-key: "G68A A83G"
  self-cleavage: 0.522

So what does the record say about self-cleavage for A77C G82A ? 0.358

Then this variant: C14A A16G 0.776

Input A8G G38U 0.0405

Subsequent entry: G25C G55U 0.089

Now the same for G5U G82U 0.128

Thanks! And G11C C32G ? 0.0875

Param item: G5C U12A 0.0791

Now the variant A42G C66G 0.538

Try this variant too: A8U C41U 0.594

What would you report for G17U A71G ? 0.323

Query U12A G17A next 0.19

Can you handle C21U C36U next? 0.218
